Below, each entry is listed with its recorded pIC50.
Target entity: Bifunctional epoxide hydrolase 2 (Homo sapiens)
Sequence (P34913 whole entry): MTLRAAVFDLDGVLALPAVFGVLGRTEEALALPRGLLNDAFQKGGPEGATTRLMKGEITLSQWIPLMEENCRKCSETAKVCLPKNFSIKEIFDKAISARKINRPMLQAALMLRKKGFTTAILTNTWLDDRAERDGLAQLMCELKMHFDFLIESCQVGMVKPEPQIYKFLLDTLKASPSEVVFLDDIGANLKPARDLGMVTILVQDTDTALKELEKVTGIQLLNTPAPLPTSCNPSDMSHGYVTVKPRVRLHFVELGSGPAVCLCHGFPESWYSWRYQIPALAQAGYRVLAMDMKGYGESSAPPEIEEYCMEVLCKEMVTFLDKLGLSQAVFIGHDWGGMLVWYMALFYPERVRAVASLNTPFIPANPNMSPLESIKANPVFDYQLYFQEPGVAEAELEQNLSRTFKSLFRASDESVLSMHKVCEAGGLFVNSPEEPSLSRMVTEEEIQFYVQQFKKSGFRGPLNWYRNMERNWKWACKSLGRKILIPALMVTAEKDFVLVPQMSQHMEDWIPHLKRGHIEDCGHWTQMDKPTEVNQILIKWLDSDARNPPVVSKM
Assay name: Inhibition of recombinant human sEH expressed in insect High Five cells preincubated for 5 mins followed by addition of t-DPPO as substrate measured after 10 mins by liquid scintillation counter method
pIC50: −log10 of the molar value.
Measure name: pIC50

INSERT INTO assay_data (compound_structure, numeric_readout) VALUES
  ('CCC(=O)Nc1cc(Cl)c(Oc2ccc(O)c(-c3ccc(C(C)=O)cc3)c2)c(Cl)c1', 5.11),
  ('CCC(=O)Nc1cc(Cl)c(Oc2ccc(O)c(-c3ccc(NC(N)=O)cc3)c2)c(Cl)c1', 5.12),
  ('CCC(=O)Nc1cc(Cl)c(Oc2ccc(O)c(-c3ccc(C(N)=O)cc3)c2)c(Cl)c1', 5.07);
